Reference for the values: patent US20220411492A1

molecular target: murine CLDN18.2 (mCLDN18.2) (murine) (UniProt P56857); test: FACS, HEK293-mCLDN18.2 cells
EC50 listing for selected binders.
State just the number; it will be interpreted in nM.

{"binder": "ch-59F9 (antibody, V domains shown, also called chimeric antibody of clone 59F9) VH: QVQLQQSGAELMKPGASVKLPCKASGYTLTGYWIEWLKQRPRHGLEWIGEILLGSGSIKYNVKFKDKATFTADTSSNTAYMQLNSLTTEDSAIYYCARKGLRGNSFDYWGQGTTLTVSS VL: DIVMTQSPSSLTVTAGEKVTMSCKSSQSLLNSGNQKSYLTWYQQKPGQPPKRLIYWASTRESGVPDRFTGSGSGTDFTLTISSVQAEDLAVYYCQNDYYYPFTFGSGTKLEIK", "measurement.units": "nM", "recorded.value": 1.22}

Provide one value: measured EC50 of ch-299B2 (antibody, V domains shown, also called chimeric antibody of clone 299B2) VH: QVQLKQSGPELVRPGASVKLSCKTSGYIFTNYWIHWVKQRSGQGLEWVVRIYPGTGNTYYNEKFTGKATLTADKSSSTAYMQLSSLKYEDSAVYFCSREGYGKGNSMDYWGQGTSVTVSS VL: DIVMTQSPSSLTVTAGEKVTMNCKSSQSLLNSGNQKNYLTWYQQKPGQPPKLLFYWASTRESGVPDRFTGSGSGTDFTLTISSVQAEDLAVYHCQNAYYYPYTFGGGTKLEMK
0.758
